The molecules listed here are annotated with their Population Mitotic Cells (%).
Tested on: Fibroblast
Experiment: Multiplex assay against human fibroblast
Type: toxicity, cell-based
Settings: 12 h, 1 µM, compound concentration 1 uM, replicate 2
Numbers only; they are read as %.

{"columns": ["Molecule", "Units text", "Endpoint value"],
 "data": [
  ["Cc1cnc(-c2cc(N3CCN(C(=O)CCS(C)(=O)=O)CC3)ncc2Cl)c(C)c1", "%", 68]
]}

Return reported Population Mitotic Cells (%). Input molecule: CCCCCC(O)/C=C/[C@H]1C(=O)CC(O)C1C/C=C\CCCC(=O)O (stereo partly drawn) 50

Return reported Population Mitotic Cells (%). Input molecule: Cc1sc2c(c1C)C(c1ccc(Cl)cc1)=N[C@@H](CC(=O)NCCCCCCCCNC(=O)COc1cccc3c1C(=O)N(C1CCC(=O)NC1=O)C3=O)c1nnc(C)n1-2 (stereo partly drawn) 57

----------
Test system: U2OS
Assay: Multiplex assay against U2OS
Assay type: toxicity, cell-based
Conditions: human, 12 h, 1 µM, compound concentration 1 uM, replicate 1
Measure name: Population Mitochondria Different-Phenotype (%)
Numbers only; they are read as %.

Before answering, review these 5 worked examples.
{"columns": ["Molecule", "Units text", "Endpoint value"],
 "data": [
  ["NCCc1cn(S(=O)(=O)c2c(Cl)nc3sccn23)c2ccccc12.O=C(O)C(=O)O", "%", 6],
  ["O=C(NCCN1CCC(n2c(=O)[nH]c3cc(Cl)ccc32)CC1)c1ccc(F)cc1 [HALOPEMIDE]", "%", 1],
  ["CCCCC(=O)N(Cc1ccc(-c2ccccc2-c2nnn[nH]2)cc1)[C@H](C(=O)O)C(C)C", "%", 3],
  ["CCCCCC(O)/C=C/[C@H]1C(=O)CC(O)C1C/C=C\\CCCC(=O)O (stereo partly drawn)", "%", 4],
  ["O=C(CCCc1ccccc1)Nc1nc2ccccc2c(=O)s1", "%", 2]
]}

Return reported Population Mitochondria Different-Phenotype (%). Input molecule: Cc1c(CC(=O)O)c2cccnc2n1Cc1ccc(S(C)(=O)=O)cc1C(F)(F)F 2

Return reported Population Mitochondria Different-Phenotype (%). Input molecule: CCc1cc2cc(NS(=O)(=O)c3ccc(C#N)cc3)ccc2n(CC)c1=O 2

----------
The compounds listed here are annotated with their Population Mitochondria Different-Phenotype (%).
System: Fibroblast
Experiment: Multiplex assay against human fibroblast
Assay type: toxicity, cell-based
Conditions: 24 h, 1 µM, compound concentration 1 uM, replicate 1
Numbers only; they are read as %.

{"columns": ["Compound", "Endpoint value"],
 "data": [
  ["CC(C)(C)c1cc(NC(=O)Nc2ccc(-c3cn4c(n3)sc3cc(OCCN5CCOCC5)ccc34)cc2)no1 [QUIZARTINIB]", 6],
  ["Cl.N=C(N)NC(=O)Cc1c(Cl)cccc1Cl [GUANFACINE HYDROCHLORIDE]", 5],
  ["Cc1sc2c(c1C)C(c1ccc(Cl)cc1)=N[C@@H](CC(=O)NCCCCCCCCNC(=O)COc1cccc3c1C(=O)N(C1CCC(=O)NC1=O)C3=O)c1nnc(C)n1-2 (stereo partly specified)", 3],
  ["COc1cccc2c1c(NS(=O)(=O)c1ccc(Cl)s1)nn2Cc1cccc(CNC(=O)C(C)(C)O)c1", 3],
  ["Cc1cccc(NC(=O)CN2CCC(c3ccccn3)CC2)c1.Cl.Cl", 8]
]}

Return reported Population Mitochondria Different-Phenotype (%). Input compound: Cc1c(CC(=O)O)c2cccnc2n1Cc1ccc(S(C)(=O)=O)cc1C(F)(F)F [FEVIPIPRANT] 5
